Target: Alkaline phosphatase, tissue-nonspecific isozyme (Homo sapiens, UniProt P05186)
Sequence (P05186 whole entry): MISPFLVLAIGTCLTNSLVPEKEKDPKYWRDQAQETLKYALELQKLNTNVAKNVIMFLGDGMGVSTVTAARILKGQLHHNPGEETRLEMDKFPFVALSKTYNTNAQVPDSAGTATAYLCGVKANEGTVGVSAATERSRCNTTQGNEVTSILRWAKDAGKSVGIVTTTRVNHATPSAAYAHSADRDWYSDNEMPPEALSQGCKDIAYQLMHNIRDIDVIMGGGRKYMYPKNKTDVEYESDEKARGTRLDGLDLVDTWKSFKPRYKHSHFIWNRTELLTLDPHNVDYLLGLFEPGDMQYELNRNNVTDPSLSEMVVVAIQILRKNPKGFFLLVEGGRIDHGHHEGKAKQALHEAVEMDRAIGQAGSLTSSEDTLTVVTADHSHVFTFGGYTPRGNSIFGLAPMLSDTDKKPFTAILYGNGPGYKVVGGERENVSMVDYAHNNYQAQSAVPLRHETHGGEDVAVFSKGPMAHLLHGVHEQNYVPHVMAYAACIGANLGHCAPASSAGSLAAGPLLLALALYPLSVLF
Test: potency against alkaline phosphatase TNAP – biochemical, luminescent, dose response, SAR follow-up (AID 1056)
Active and inactive are the calls of the source.
Please reply with one of these outcomes: active, inactive

Answered cases to consult:
-- ask Call for entry Nc1nc(COc2ccccc2)n(-c2ccccc2)n1 :
-- reply inactive

-- ask Could you check what this test reported for O=C(CSc1nnc(-c2ccccc2)[nH]1)c1ccc(O)cc1O ?
-- reply active

-- ask Could you check what this test reported for O=C1c2cccc(F)c2C(=O)N1c1nnc(Cc2ccccc2)[nH]1 ?
-- reply active

-- ask # outcome recorded in this test, key = CC1(C)CC(=O)c2c(n[nH]c2-c2cccnc2)C1
-- reply active

-- ask Hello, I am checking results. What call was entered for O=C(O)c1ccc2c(c1)C(=O)N(c1nc(-c3cccnc3)n[nH]1)C2=O ?
-- reply inactive

We next turn to a different molecule, shown below.
-- ask Recorded call for O=S(=O)(Nc1cccnc1)c1cc(Cl)ccc1Cl ?
-- reply inactive

----------
Molecular target: Caspase-3 (Homo sapiens)
Sequence (P42574 whole entry): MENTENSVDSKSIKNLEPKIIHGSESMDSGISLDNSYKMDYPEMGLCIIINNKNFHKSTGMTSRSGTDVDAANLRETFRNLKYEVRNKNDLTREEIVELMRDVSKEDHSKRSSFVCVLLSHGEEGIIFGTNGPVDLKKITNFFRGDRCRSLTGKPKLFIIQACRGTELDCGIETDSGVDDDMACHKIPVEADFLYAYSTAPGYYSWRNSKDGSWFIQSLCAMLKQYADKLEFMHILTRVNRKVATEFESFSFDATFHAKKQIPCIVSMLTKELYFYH
Assay: SAR Analysis of small molecule inhibitors of Sentrin-specific proteases (SENPs) using a Caspase-3 Selectivity assay. [Related pubchem assays (depositor defined):AID2540, AID2599, AID434973, AID489001]
Assay type: functional
The source made the active and inactive calls.
// allowed return values: YES (active), NO (inactive)

Here are 5 compounds together with their reported answers.
-- ask Tell me the assay call for Nc1ccc(-c2noc(/C=C/c3ccccc3)n2)cc1[N+](=O)[O-] please.
-- reply NO

-- ask What was the test verdict on Fc1cc(F)cc(-c2noc(/C=C/c3ccccc3Cl)n2)c1 ?
-- reply NO

-- ask GET /call?item= Cc1ccc2nc(NC(=O)c3cc(=O)c4cc(C)c(C)cc4o3)sc2c1 returns the recorded outcome of this test.
-- reply NO

-- ask Can you look up the reported call for CC(C)CC(=O)Nc1ccc(-c2nc3cc(Cl)ccc3s2)cc1 for me?
-- reply NO

-- ask Per the assay record, what outcome was assigned to Cc1cccc(C(=O)Nc2scc(-c3ccc(Br)cc3)c2C(=O)O)c1 ?
-- reply YES

Now for a further compound.
-- ask Fill in: this test's call for Oc1cccc(/C=N/Nc2cc(N3CCCC3)nc(N3CCCC3)n2)c1 is ___
-- reply NO

----------
Each entry below carries its recorded IC50.
target: Eukaryotic translation initiation factor 4E (Mus musculus, UniProt P63073); assay: blockers of eIF4G binding by eIF4E – biochemical, TR-FRET, dose response (AID 855); assay type: functional;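 further: potency for disrupting eIF4E binding to eIF4GI seen as loss of FRET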
Sequence (P63073 whole entry): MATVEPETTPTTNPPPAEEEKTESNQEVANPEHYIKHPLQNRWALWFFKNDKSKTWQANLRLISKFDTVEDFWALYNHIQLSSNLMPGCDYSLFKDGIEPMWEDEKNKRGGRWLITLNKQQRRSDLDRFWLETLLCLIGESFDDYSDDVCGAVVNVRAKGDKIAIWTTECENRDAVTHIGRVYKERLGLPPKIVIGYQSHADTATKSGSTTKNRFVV
Calls of active or inactive are those of the source.

Examples from the recorded data:
-- ask Requested field: IC50. Item: O=c1/c(=C\c2cc([N+](=O)[O-])cc([N+](=O)[O-])c2O)sc2nc3ccccc3n12
-- reply 50 µM (inactive)

-- ask Which measured IC50 value corresponds to COC(=O)COc1ccc(S(=O)(=O)Nc2ccc3c(c2)OCO3)cc1 ?
-- reply > 64 µM (inactive)

-- ask Can you look up the measured IC50 of CN(C)c1ccc2c(c1)N=C(c1ccco1)OP2(=S)N1CCOCC1 (stereo unspecified) for me?
-- reply > 64 µM (inactive)

-- ask Form field: reported IC50 of COc1cccc(NC(=O)COc2ccc(N3CC(C(=O)NCC(C)C)CC3=O)cc2)c1 (stereo unspecified)
-- reply > 64 µM (inactive)

-- ask What value of IC50 has been reported for the following molecule? Cc1cccc(-n2c(=O)c3c4c(sc3n3c(=S)[nH]nc23)CCC4)c1
-- reply 50 µM (inactive)

---
-- ask Would you mind telling me what IC50 value was observed for CCc1ccc(C(=O)NNC(=O)OC)cc1 ?
-- reply 50 µM (inactive)

----------
Recorded IC50, one value per entry.
Molecular target: Apoptotic protease-activating factor 1 (Homo sapiens)
Sequence (O14727 whole entry): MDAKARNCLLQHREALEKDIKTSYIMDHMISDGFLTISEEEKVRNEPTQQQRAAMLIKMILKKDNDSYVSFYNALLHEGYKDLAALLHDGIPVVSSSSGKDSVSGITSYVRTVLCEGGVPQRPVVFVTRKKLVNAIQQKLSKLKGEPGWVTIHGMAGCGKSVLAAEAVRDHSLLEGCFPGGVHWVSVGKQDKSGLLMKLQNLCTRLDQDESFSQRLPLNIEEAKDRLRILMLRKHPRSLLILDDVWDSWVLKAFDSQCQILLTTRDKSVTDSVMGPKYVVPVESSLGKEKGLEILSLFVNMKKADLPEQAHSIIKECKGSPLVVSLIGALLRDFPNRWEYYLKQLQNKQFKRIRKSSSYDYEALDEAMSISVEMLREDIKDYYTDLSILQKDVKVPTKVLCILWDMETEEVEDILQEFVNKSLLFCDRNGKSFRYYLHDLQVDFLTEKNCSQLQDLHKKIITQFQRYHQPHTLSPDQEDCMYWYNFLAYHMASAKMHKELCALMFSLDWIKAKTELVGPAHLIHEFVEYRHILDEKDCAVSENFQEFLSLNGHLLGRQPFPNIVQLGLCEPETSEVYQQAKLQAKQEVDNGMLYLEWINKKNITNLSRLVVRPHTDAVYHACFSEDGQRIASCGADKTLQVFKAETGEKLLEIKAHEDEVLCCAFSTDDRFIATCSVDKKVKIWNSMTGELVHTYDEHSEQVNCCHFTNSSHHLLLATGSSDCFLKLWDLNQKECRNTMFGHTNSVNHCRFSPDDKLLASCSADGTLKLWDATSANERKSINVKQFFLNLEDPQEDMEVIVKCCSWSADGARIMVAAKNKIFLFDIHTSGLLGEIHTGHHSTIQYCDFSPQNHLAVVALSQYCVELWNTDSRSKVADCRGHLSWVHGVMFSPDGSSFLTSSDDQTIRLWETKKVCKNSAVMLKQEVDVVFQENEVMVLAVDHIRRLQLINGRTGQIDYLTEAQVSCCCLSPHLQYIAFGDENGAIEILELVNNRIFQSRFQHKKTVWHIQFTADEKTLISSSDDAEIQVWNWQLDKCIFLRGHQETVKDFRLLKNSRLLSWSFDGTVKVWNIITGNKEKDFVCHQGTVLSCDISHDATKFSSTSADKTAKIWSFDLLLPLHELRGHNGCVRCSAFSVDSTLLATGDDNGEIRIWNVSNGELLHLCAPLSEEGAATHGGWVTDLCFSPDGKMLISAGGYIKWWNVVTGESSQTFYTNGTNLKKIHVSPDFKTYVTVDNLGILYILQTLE
Assay type: functional
The source made the active and inactive calls.

Here is how some molecules turned out for IC50.
-- ask Please tell me: IC50 of Cc1ccc(-c2nn3c(C)nnc3c3ccccc23)cc1S(=O)(=O)NC(C)c1ccccc1 (centres undefined) , system Apoptotic protease-activating factor 1 (Homo sapiens)?
-- reply 7.48 µM (active)

-- ask Recall the recorded IC50 for CC(=O)c1ccc(N2CCN(S(=O)(=O)c3ccc4c5c3CC(=O)N5CC(C)S4)CC2)cc1 (centres undefined) with Apoptotic protease-activating factor 1 (Homo sapiens) and state it.
-- reply 50.7 µM (active)

-- ask State its IC50 on Apoptotic protease-activating factor 1 (Homo sapiens): Oc1cccc(/C=N/Nc2cc(N3CCCC3)nc(N3CCCC3)n2)c1
-- reply 1.84 µM (active)

// next entry
-- ask Entry C#CCOCCOCCOCCNc1nc(N2CCN(C(=O)CCCCCCCCCCNC(=O)Cn3cc(CCCCCN)nn3)CC2)nc(N2CCN(C(=O)CCCCCCCCCCNC(=O)[C@@H]([C@H](C)O)n3cc(C)nn3)CC2)n1 , system Apoptotic protease-activating factor 1 (Homo sapiens): what IC50 was measured?
-- reply 36.7 µM (active)
